Reference for the values: paper PMC6053526

# measurement_target: TGA2-His (Arabidopsis thaliana)
# Sequence: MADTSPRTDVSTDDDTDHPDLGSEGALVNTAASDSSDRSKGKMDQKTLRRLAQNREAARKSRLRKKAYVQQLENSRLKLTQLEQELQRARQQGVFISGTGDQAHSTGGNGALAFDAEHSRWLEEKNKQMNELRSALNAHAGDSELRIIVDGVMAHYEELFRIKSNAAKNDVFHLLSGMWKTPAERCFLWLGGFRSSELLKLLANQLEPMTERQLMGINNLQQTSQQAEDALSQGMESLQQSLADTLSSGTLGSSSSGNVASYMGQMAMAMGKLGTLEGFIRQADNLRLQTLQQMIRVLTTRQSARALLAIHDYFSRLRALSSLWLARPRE
# protocol_summary: EMSA
# experimental_conditions: 5x buffer (3 uL in 14 uL): 20% glycerol, 5 mM MgCl2, 2.5 mM EDTA, 2.5 mM DTT, 250 mM NaCl, 50 mM Tris-HCl pH 7.5, 0.25 mg/ml poly(dI-dC); 0.5 ug protein; 10 min

{"macromolecule_sequence": "TTTCTCTACGTCACTATTTTACTTACGTCATAGATGTGGCGGCATATATTCTTCAGGACTTTTCAGATCTAGGC (double strand) [BCD]", "measurement_target": "TGA2-His (Arabidopsis thaliana)", "binding": "binds"}
{"macromolecule_sequence": "CTCTACGCAACTATTTTACTTACGTCATAGATGTGGCGGCATATATTCTTCAGGACTTTTCAGATCTAGGC (double strand) [BCDm1]", "measurement_target": "TGA2-His (Arabidopsis thaliana)", "binding": "binds"}
{"macromolecule_sequence": "ATCGGATCCGGTGATCTATTGACTGTTTCTCTACGTCACTATTTTACTTACGTCATAGATGTGGCGGCATATA (double strand) [ABC]", "measurement_target": "TGA2-His (Arabidopsis thaliana)", "binding": "binds"}
